Ref: patent US20250026748A1

subject.of.test: Polθ ATPase enzyme (1-894) (Homo sapiens (Human))
Sequence (O75417 1-894): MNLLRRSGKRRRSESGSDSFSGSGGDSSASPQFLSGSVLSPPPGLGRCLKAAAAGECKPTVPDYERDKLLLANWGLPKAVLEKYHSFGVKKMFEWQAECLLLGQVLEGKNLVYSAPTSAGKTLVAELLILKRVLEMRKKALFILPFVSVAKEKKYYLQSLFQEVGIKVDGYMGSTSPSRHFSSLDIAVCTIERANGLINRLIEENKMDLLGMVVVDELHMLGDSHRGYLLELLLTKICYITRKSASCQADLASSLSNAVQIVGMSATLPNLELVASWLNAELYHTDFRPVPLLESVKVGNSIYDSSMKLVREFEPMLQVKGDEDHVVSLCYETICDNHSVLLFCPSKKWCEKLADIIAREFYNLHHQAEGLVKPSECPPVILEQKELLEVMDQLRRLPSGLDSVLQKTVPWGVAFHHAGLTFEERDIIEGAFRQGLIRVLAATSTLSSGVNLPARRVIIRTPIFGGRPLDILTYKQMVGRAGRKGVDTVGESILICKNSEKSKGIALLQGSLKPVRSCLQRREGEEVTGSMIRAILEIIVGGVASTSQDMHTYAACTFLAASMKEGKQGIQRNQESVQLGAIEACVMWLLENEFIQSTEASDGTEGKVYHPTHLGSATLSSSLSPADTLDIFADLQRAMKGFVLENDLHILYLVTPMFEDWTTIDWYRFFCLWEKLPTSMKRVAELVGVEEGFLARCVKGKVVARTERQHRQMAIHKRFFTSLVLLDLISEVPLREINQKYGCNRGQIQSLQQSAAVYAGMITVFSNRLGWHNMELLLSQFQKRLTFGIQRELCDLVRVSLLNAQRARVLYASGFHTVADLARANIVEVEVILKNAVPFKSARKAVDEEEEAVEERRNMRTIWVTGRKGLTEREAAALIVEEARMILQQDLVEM
protocol.text: Polθ ATPase enzymatic assay (3 nM enzyme concentration), ADP-Glo
Type: biochemical
condition.info: read-out: IC50 (nM) [PolQ] 3 nM; average IC50; 3 nM PolQ ATPase enzyme (1-894)
Method: Polθ ATPase enzyme (1-894) at 3 nM is incubated with a 10-point concentration response of inhibitors for 15 min at rt in the following buffer: 50 mM Tris Cl pH 7.5, 10% glycerol, 5 mM DTT, 10 mM MgCl2, 0.1 mg/ml BSA. […] ATP consumption is measured using the ADP-Glo assay from Promega. Luminescence is read on the Envision and IC50 are determined using the variable slope 4-parameters equation. […]
value.kind: IC50 (nM)

- COc1ccc(C#N)cc1-c1cn(C)c(=O)cc1C(=O)Nc1nnc(C2C[C@H]2c2ccc(C#N)cc2)s1 (some centres unmarked): 15

1 = COc1ccc(C#N)cc1-n1cncc1C(=O)Nc1nnc(C#CC2CC2)s1
2 = COc1ccc(F)cc1-c1cnccc1C(=O)Nc1nnc(C#Cc2cnn(CC#N)c2)s1
3 = COc1ccc(C#N)cc1-c1cnccc1C(=O)Nc1nnc(C#CC2COC2)s1
Arrange the 3 entries by IC50 so the values rise. Labels, requested order.
3, 2, 1
(3: 12 nM, 2: 48 nM, 1: 134 nM)

a = COc1ccc(C#N)cc1-c1cnccc1C(=O)Nc1nnc(C#CC2CCC2)s1
b = COc1ccc(F)cc1-c1cnccc1C(=O)Nc1nnc(C#Cc2cnc3cnccn23)s1
When a and b are compared, which has the higher number for IC50? Kindly state the label of the option you pick.
b
(b: 139 nM, a: 2.9 nM)

A = COc1ccc(C#N)cc1-c1cnccc1C(=O)Nc1nnc(C#CC2CC23CC3)s1 (centres unmarked)
B = COc1ccc(F)cc1-c1cnccc1C(=O)Nc1nnc([C@@H]2C[C@H]2c2ccc(C#N)cc2)s1
Given the listed records, identify the one among A and B with higher IC50. Returns: label corresponding to the selected item.
B
(B: 5.8 nM, A: 2 nM)
